test: Topotecan PK following Compound 1 infusion; format: in vivo, human; conditions: human, plasma, intravenous; read-out: t½ (converted)
PROPERTY MEASURED: half-life

Item: CC[C@@]1(O)C(=O)OCc2c1cc1n(c2=O)Cc2cc3c(CN(C)C)c(O)ccc3nc2-1.Cl [topotecan] | half-life: 5.45 h

---

test: 14-day oral gavage toxicokinetic study in rats; format: in vivo; conditions: male, rat, plasma, po, 15 mg/kg, Mean Compound 1 Plasma Concentration, rats, oral 15 mg/kg, Day 14, 4 h, Male
PROPERTY MEASURED: concentration at 4 h
Answer shape: numeric part, then the unit.

Item: CN1CCN(c2ccc(Nc3ncc4cc5n(c4n3)C3(CCCCC3)CNC5=O)nc2)CC1 | concentration at 4 h: 1.08 µg/mL

---

test: 14-day oral gavage toxicokinetic study in rats; assay type: in vivo; details: both sexes, rat, plasma, po, 30 mg/kg, Mean Compound 1 Plasma Concentration, rats, oral 30 mg/kg, Day 14, 8 h, Overall
PROPERTY MEASURED: concentration at 8 h (µg/mL)
The answer is to be given in µg/mL; state only the numeric part.

Item: CN1CCN(c2ccc(Nc3ncc4cc5n(c4n3)C3(CCCCC3)CNC5=O)nc2)CC1 | concentration at 8 h: 1.92

---

Experiment: Compound 1 PK dosed Days 1-3 with etoposide and carboplatin
Type: in vivo, human
Conditions: human, plasma, intravenous, 200 mg/m2, 200 mg/m^2 with Etoposide and Carboplatin, Day 3, Mean; read-out: Cmax
Experimental: Analysis of plasma concentration versus time data for calculation of standard pharmacokinetic (PK) parameters following intravenous infusion administration was conducted using Phoenix WinNonlin version 6.3 using a nominal infusion duration and scheduled blood sampling times.
PROPERTY MEASURED: Cmax (ng/mL)
The answer is to be given in ng/mL; state only the numeric part.

Item: CN1CCN(c2ccc(Nc3ncc4cc5n(c4n3)C3(CCCCC3)CNC5=O)nc2)CC1 | Cmax: 1380

---

assay: Compound 1 PK dosed Days 1-5 with topotecan; assay type: in vivo, human; conditions: human, plasma, intravenous, Cohort 3 (Topotecan 0.75 mg/m^2); Compound 1 200 mg/m^2; Day 4; mean; read-out: Half-lives averaged (converted)
PROPERTY MEASURED: half-life (h)
The answer is to be given in h; state only the numeric part.

Item: CN1CCN(c2ccc(Nc3ncc4cc5n(c4n3)C3(CCCCC3)CNC5=O)nc2)CC1 | half-life: 8.81

---

experiment: Compound 1 PK dosed Days 1-5 with topotecan; format: in vivo, human; conditions: human, plasma, intravenous, Cohort 1 (Topotecan […]^2); Compound 1 200 mg/m^2; Day 1; mean; read-out: Cmax averaged
PROPERTY MEASURED: Cmax (ng/mL)
The answer is to be given in ng/mL; state only the numeric part.

Item: CN1CCN(c2ccc(Nc3ncc4cc5n(c4n3)C3(CCCCC3)CNC5=O)nc2)CC1 | Cmax: 955

---

assay: Single escalating dose IV infusion pharmacokinetics in healthy volunteers (noncompartmental); format: in vivo, human; details: both sexes, human, plasma, iv, 12 mg/m2, Cohort 2, 12 mg/m^2 IV; r6-8=Subjects 1-3,r10=Mean,r12=Min,r13=Median,r14=Max,r16=Geometric Mean; read-out: t½ (converted)
PROPERTY MEASURED: half-life (h)
The answer is to be given in h; state only the numeric part.

Item: CN1CCN(c2ccc(Nc3ncc4cc5n(c4n3)C3(CCCCC3)CNC5=O)nc2)CC1 | half-life: 8.22

---

experiment: Topotecan PK following Compound 1 infusion; type: in vivo, human; details: human, plasma, intravenous, topotecan 0.75 mg/m^2 (Cohort 3) after Compound 1 200 mg/m^2; Day 1; mean; read-out: Half-lives averaged (converted)
PROPERTY MEASURED: half-life (h)
The answer is to be given in h; state only the numeric part.

Item: CC[C@@]1(O)C(=O)OCc2c1cc1n(c2=O)Cc2cc3c(CN(C)C)c(O)ccc3nc2-1.Cl | half-life: 4.33

---

test: 14-day oral gavage toxicokinetic study in rats; assay type: in vivo; conditions: both sexes, rat, plasma, po, 5 mg/kg, Mean Compound 1 Plasma Concentration, rats, oral 5 mg/kg, Day 1, 8 h, Overall
PROPERTY MEASURED: concentration at 8 h (ng/mL)
The answer is to be given in ng/mL; state only the numeric part.

Item: CN1CCN(c2ccc(Nc3ncc4cc5n(c4n3)C3(CCCCC3)CNC5=O)nc2)CC1 | concentration at 8 h: 318

---

assay: Single escalating dose IV infusion pharmacokinetics in healthy volunteers (noncompartmental); format: in vivo, human; settings: both sexes, human, plasma, iv, 48 mg/m2, Cohort 4, 48 mg/m^2 IV; r6-8=Subjects 1-3,r10=Mean,r12=Min,r13=Median,r14=Max,r16=Geometric Mean; read-out: Cmax
PROPERTY MEASURED: Cmax
Answer shape: numeric part, then the unit.

Item: CN1CCN(c2ccc(Nc3ncc4cc5n(c4n3)C3(CCCCC3)CNC5=O)nc2)CC1 | Cmax: 224 ng/mL

---

test: 14-day oral gavage toxicokinetic study in rats; format: in vivo; details: both, rat, plasma, po, 30 mg/kg, Mean Compound 1 Plasma Concentration, rats, oral 30 mg/kg, Day 14, […], Overall
PROPERTY MEASURED: concentration at […] (ng/mL)
The answer is to be given in ng/mL; state only the numeric part.

Item: CN1CCN(c2ccc(Nc3ncc4cc5n(c4n3)C3(CCCCC3)CNC5=O)nc2)CC1 | concentration at […]: 372

---

test: 14-day oral gavage toxicokinetic study in rats; type: in vivo; settings: female, rat, plasma, po, 2 mg/kg, Compound 1 Plasma Concentration, rats, Female, Day 1, 12 h; daily oral 2 mg/kg (Group 7); individual animals
PROPERTY MEASURED: concentration at 12 h (ng/mL)
The answer is to be given in ng/mL; state only the numeric part.

Item: CN1CCN(c2ccc(Nc3ncc4cc5n(c4n3)C3(CCCCC3)CNC5=O)nc2)CC1 | concentration at 12 h: 91.8

---

experiment: Compound 1 PK dosed Days 1-5 with topotecan; assay type: in vivo, human; conditions: human, plasma, intravenous, Cohort 2 (Topotecan 1.25 mg/m^2); Day 1; mean; read-out: concentration at 24.5 hours after the start of infusion, averaging
PROPERTY MEASURED: concentration at 24.5 h (ng/mL)
The answer is to be given in ng/mL; state only the numeric part.

Item: CN1CCN(c2ccc(Nc3ncc4cc5n(c4n3)C3(CCCCC3)CNC5=O)nc2)CC1 | concentration at 24.5 h: 19.5

---

Test: 14-day oral gavage toxicokinetic study in rats
Type: in vivo
Settings: both sexes, rat, plasma, po, 15 mg/kg, Mean Compound 1 Plasma Concentration, rats, oral 15 mg/kg, Day 1, 2 h, Overall
Experimental: Plasma was obtained from blood samples collected from rats in a composite sampling scheme, with 3 samples collected per sex, per dose, at each target collection time, as illustrated in Table 21 to Table 25. […] The following parameters were determined: […] A value of 0 ng/mL was assigned to all values below the lower limit of quantitation (BLQ, <10.0 ng/mL). […] CL: Clearance (L/h/kg), calculated as the dose divided by AUC(0-t). […] Cmax/Dose: Normalized Cmax, calculated as Cmax divided by total dose. […]
PROPERTY MEASURED: concentration at 2 h

Item: CN1CCN(c2ccc(Nc3ncc4cc5n(c4n3)C3(CCCCC3)CNC5=O)nc2)CC1 | concentration at 2 h: 1490 ng/mL

---

test: 14-day oral gavage toxicokinetic study in rats; format: in vivo; conditions: female, rat, plasma, po, 5 mg/kg, Mean Compound 1 Plasma Concentration, rats, oral 5 mg/kg, Day 1, 0.5 h, Female
PROPERTY MEASURED: concentration at 0.5 h (ng/mL)
The answer is to be given in ng/mL; state only the numeric part.

Item: CN1CCN(c2ccc(Nc3ncc4cc5n(c4n3)C3(CCCCC3)CNC5=O)nc2)CC1 [Compound 1] | concentration at 0.5 h: 267

---

assay: Compound 1 PK dosed Days 1-5 with topotecan; format: in vivo, human; settings: human, plasma, intravenous, 200 mg/m^2 with Topotecan […]^2 (Cohort 1), Day 1, individual subjects; read-out: AUCinf
PROPERTY MEASURED: AUC(0-inf) (ng·h/mL)
The answer is to be given in ng·h/mL; state only the numeric part.

Item: CN1CCN(c2ccc(Nc3ncc4cc5n(c4n3)C3(CCCCC3)CNC5=O)nc2)CC1 [Compound 1] | AUC(0-inf): 1840

---

assay: 14-day oral gavage toxicokinetic study in rats; type: in vivo; conditions: male, rat, plasma, po, 2 mg/kg, Compound 1 Plasma Concentration, rats, Male, Day 1, 12 h; daily oral 2 mg/kg (Group 7); individual animals
PROPERTY MEASURED: concentration at 12 h
Answer shape: numeric part, then the unit.

Item: CN1CCN(c2ccc(Nc3ncc4cc5n(c4n3)C3(CCCCC3)CNC5=O)nc2)CC1 | concentration at 12 h: 51.9 ng/mL
